Please go through the items and note down their IC90.
Test system: Acinetobacter baumannii ATCC17961
Test: Antimicrobial susceptibility testing: 90% growth inhibitory concentration (IC90) determination, Iso-Sensitest broth
Type: cell-based
Settings: Acinetobacter baumannii, ATCC17961, 90% growth inhibitory concentration, Acinetobacter baumannii ATCC17961, Iso-Sensitest broth; read-out: ATCC 17961 IC90
Where a name gives a salt, the structure may show the parent alone.
Write the number in µM without appending the unit.

Exercise: For CN(C)CCN1CCN(C(=O)c2ccc(NC(=O)c3ncc(-c4ccc(Oc5ncccn5)c(F)c4F)n3C)cc2Cl)CC1 [Example 273, trifluoroacetate] , write its IC90.
Key: 1.3

Exercise: For CN(C)CCN1CCN(C(=O)c2ccc(NC(=O)c3ncc(-c4ccc(Oc5ccccn5)c(F)c4F)n3C)cc2Cl)CC1 [Example 271, trifluoroacetate] , write its IC90.
Key: 0.64

Exercise: For Cn1c(-c2ccc(OCF)c(F)c2F)cnc1C(=O)Nc1ccc(C(=O)N2CCN(C(=O)C3CCNCC3)CC2)c(Cl)c1 [Example 143, formate] , write its IC90.
Key: 0.03

Exercise: For Cn1c(-c2ccc(OCF)c(F)c2F)cnc1C(=O)Nc1ccc(C(=O)N2CCN(C(=O)C3(O)CCNCC3)CC2)c(Cl)c1 [Example 162, formate] , write its IC90.
Key: 0.03

Exercise: For COc1ccc(-c2cnc(C(=O)Nc3ccc(C(=O)N4CCN(C(=O)CC5(O)CCNCC5)CC4)c(Cl)c3)n2C)c(Cl)c1F [Example 182, formate] , write its IC90.
Key: 0.07

Exercise: For COc1ccc(-c2cnc(C(=O)Nc3ccc(C(=O)N4CC(NC(=O)C5CC(CN)C5)C4)c(Cl)c3)n2C)c(F)c1F (stereo not drawn) [Example 218, trifluoroacetate] , write its IC90.
Key: 0.09

Exercise: For CC[C@@]1(O)CN[C@H](C(=O)N2CCN(C(=O)c3ccc(NC(=O)c4ncc(-c5ccc(OC)c(F)c5F)n4C)cc3Cl)CC2)C1 [Example 233, formate] , write its IC90.
Key: 0.13

Exercise: For COc1ccc(-c2cnc(C(=O)Nc3ccc(C(=O)N4CCN(C(=O)CC5CCNCC5)CC4)c(Cl)c3)n2C)c(F)c1F , write its IC90.
Key: 0.04

Exercise: For COc1ccc(-c2cnc(C(=O)Nc3ccc(C(=O)N4CCC(NS(C)(=O)=O)CC4)c(Cl)c3)n2C)c(F)c1F , write its IC90.
Key: 0.13
